# EXPERIMENT_NOTES: physchem
# CONDITION_PARAMETERS: simulated gastric fluid
MEASURED_ATTRIBUTE: solubility

- STRUCTURE: "Cc1cc(C)c2c3ccccc3n(Cc3ccc([C@@H](C(=O)N[C@@H](CO)c4ccccc4)C4CCCC4)cc3)c2n1"
  MEASURED_ATTRIBUTE: "solubility"
  TEST_RESULT: "0.1 µg/mL"
